Tested on: leukocytes
condition.description: maximum over treatments
metric.name: Max Fold Serum Leukocyte Depletion (fold)

| molecule | metric.name | endpoint.value |
| --- | --- | --- |
| CO[C@@]12[C@H](COC(N)=O)C3=C(C(=O)C(C)=C(N)C3=O)N1C[C@@H]1N[C@@H]12 | Max Fold Serum Leukocyte Depletion | 3.53 |
| O=C1[O][Pt]2([NH][C@@H]3CCCC[C@H]3[NH]2)[O]C1=O | Max Fold Serum Leukocyte Depletion | 2.18 |
| N.N.[Cl][Pt][Cl] [CISPLATIN] | Max Fold Serum Leukocyte Depletion | 2.01 |
| COc1cccc2c1C(=O)c1c(O)c3c(c(O)c1C2=O)C[C@@](O)(C(C)=O)C[C@@H]3O[C@H]1C[C@H](N)[C@H](O)[C@H](C)O1 | Max Fold Serum Leukocyte Depletion | 2.77 |
| O=NN(CCCl)C(=O)NC1CCCCC1 | Max Fold Serum Leukocyte Depletion | 0 |
| O=NN(CCCl)C(=O)NCCCl | Max Fold Serum Leukocyte Depletion | 4.49 |
| ClC(Cl)(Cl)Cl [CARBON TETRACHLORIDE] | Max Fold Serum Leukocyte Depletion | 0 |
| O=C(O)CCCc1ccc(N(CCCl)CCCl)cc1 | Max Fold Serum Leukocyte Depletion | 7.08 |
| N.N.O=C([O-])C1(C(=O)[O-])CCC1.[Pt+2] | Max Fold Serum Leukocyte Depletion | 0 |
| S=C=Nc1cccc2ccccc12 [1-NAPHTHYL ISOTHIOCYANATE] | Max Fold Serum Leukocyte Depletion | 0 |
